Values compiled from patent US20210139545A1.

Molecular target: T1, cytochrome b562 with C-terminally fused Strep-tagII (E. coli)
T1 construct: also called Cytb562-StrepII; Cytb562-StrepIII
Assay: affinity chromatography, overloaded Sepharose column, washed, biotin elution
Consider the following binders; for each one, report its Retained Cytb562-StrepII.
Please state the figure in µg; there is no need to write the unit.

QUERY: Bench note: what Retained Cytb562-StrepII did mutein“1”-m45 (designed binder, Library 3 clone on mutein “1”) EAGITGTWYNQLGSTFIVTAGADGALTGTYVTARGNAESRYVLTGRYDSAPATDGSGTALGWTVAWKNNYRNAHSATTWSGQYVGGAEARINTQWLLTSGTTEYNAGFSTLVGHDTFTKVKPSAAS show?
RESULT: 472

QUERY: Bench note: what Retained Cytb562-StrepII did mutein“1”-m302 (designed binder, Library 7 clone on mutein “1”, 118 and 119 deleted) EAGITGTWYNQLGSTFIVTAGADGALTGTYVTARGNAESRYVLTGRYDSAPATDGSGTALGWTVAWKNNYRNAHSATTWSGQYVGGAEARINTQWLLTSGTTEHWYSTLVGHDTFTKVKPSAAS show?
RESULT: 350

QUERY: Bench note: what Retained Cytb562-StrepII did mutein m4001 (designed binder, Library 2 clone) EAGITGTWYNQLGSTFIVTAGADGALTGTYACGRGNAECRYVLTGRYDSAPATDGSGTALGWTVAWKNNYRNAHSATTWSGQYVGGAEARINTQWLLTSGTTEANAWKSTLVGHDTFTKVKPSAAS show?
RESULT: 175

QUERY: Bench note: what Retained Cytb562-StrepII did mutein“1”-m23 (designed binder, Library 3 clone on mutein “1”) EAGITGTWYNQLGSTFIVTAGADGALTGTYVTARGNAESRYVLTGRYDSAPATDGSGTALGWTVAWKNNYRNAHSATTWSGQYVGGAEARINTQWLLTSGTTEYNAYASTLVGHDTFTKVKPSAAS show?
RESULT: 479

QUERY: Bench note: what Retained Cytb562-StrepII did mutein m402 (designed binder, Library 1 clone) EAGITGTWYNQLGSTFIVTAGADGALTGTYACARGNAECRYVLTGRYDSAPATDGSGTALGWTVAWKNNYRNAHSATTWSGQYVGGAEARINTQWLLTSGTTEANAWKSTLVGHDTFTKVKPSAAS show?
RESULT: 111

QUERY: Bench note: what Retained Cytb562-StrepII did mutein“1”-m36 (designed binder, Library 3 clone on mutein “1”) EAGITGTWYNQLGSTFIVTAGADGALTGTYVTARGNAESRYVLTGRYDSAPATDGSGTALGWTVAWKNNYRNAHSATTWSGQYVGGAEARINTQWLLTSGTTEYNAFMSTLVGHDTFTKVKPSAAS show?
RESULT: 429

QUERY: Bench note: what Retained Cytb562-StrepII did mutein“1”-m212 (designed binder, Library 6 clone on mutein “1”, 118 and 119 deleted) EAGITGTWYNQLGSTFIVTAGADGALTGTYVTARGNAESRYVLTGRYDSAPATDGSGTALGWTVAWKNNYRNAHSATTWSGQYVGGAEARINTQWLLTSGTTEHWLSTLVGHDTFTKVKPSAAS show?
RESULT: 390

QUERY: Bench note: what Retained Cytb562-StrepII did mutein“1”-m4 (designed binder, Library 3 clone on mutein “1”) EAGITGTWYNQLGSTFIVTAGADGALTGTYVTARGNAESRYVLTGRYDSAPATDGSGTALGWTVAWKNNYRNAHSATTWSGQYVGGAEARINTQWLLTSGTTEDNAGFSTLVGHDTFTKVKPSAAS show?
RESULT: 564
